From: paper PMC7503500

# Test System: synaptic benzodiazepine-sensitive receptors (BZR), GABAAR
# Assay Overview: 3H-flunitrazepam binding, rat brain homogenate
# Test Settings: read-out: BZR (Ki)
pKi: −log10 of the molar value.
Please use t whenever pKi is not below 7, and f whenever it is.

{"Entry Smiles": "C[C@H]1N=C(c2ccccc2F)c2cc(Br)ccc2-n2cnc(-c3cnco3)c21", "Test System": "synaptic benzodiazepine-sensitive receptors (BZR), GABAAR", "Assigned Category": "f"}

Could you verify whether the entry `Brc1ccc2c(c1)C(c1ccccc1)=NCc1c(-c3cnco3)ncn1-2` shows pKi of no less than 7? t

Would you mind doing `C#Cc1ccc2c(c1)C(c1ccccc1F)=N[C@H](C)c1c(C(=O)OCC)ncn1-2` as well? f

Would you mind doing `C#Cc1ccc2c(c1)C(c1ccccn1)=N[C@H](C)c1c(C(=O)O)ncn1-2` as well? f

Would you mind doing `C#Cc1ccc2c(c1)C(c1ccccn1)=NCc1c(-c3ocnc3C)ncn1-2` as well? f

Would you mind doing `C#Cc1ccc2c(c1)C(c1ccccc1F)=N[C@@H](C)c1c(-c3nc(C)no3)ncn1-2` as well? f

====

// MOR % (percent inhibition) lookup, one value per entry
# Test System: µ opioid receptor (MOR) (Homo sapiens, UniProt P35372)
# Sequence (P35372 whole entry): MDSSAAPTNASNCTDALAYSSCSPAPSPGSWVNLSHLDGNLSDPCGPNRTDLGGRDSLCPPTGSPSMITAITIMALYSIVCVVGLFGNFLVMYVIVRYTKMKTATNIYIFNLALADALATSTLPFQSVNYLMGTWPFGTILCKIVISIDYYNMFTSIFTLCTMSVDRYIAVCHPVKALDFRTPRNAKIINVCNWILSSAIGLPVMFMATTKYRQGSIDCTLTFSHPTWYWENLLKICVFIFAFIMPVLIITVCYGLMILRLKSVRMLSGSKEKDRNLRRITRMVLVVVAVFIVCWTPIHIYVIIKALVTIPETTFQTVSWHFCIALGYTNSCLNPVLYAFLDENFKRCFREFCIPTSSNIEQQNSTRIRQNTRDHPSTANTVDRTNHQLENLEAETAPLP
# Assay Overview: Radioligand competition binding, MOR ([3H]-DAMGO), HEK293 cell homogenates
# Test Settings: at 10,000 nM; [3H]-DAMGO
Your answer is read as %, so omit the unit and give the number.

{"Entry Smiles": "C[C@H]1N=C(c2ccccc2F)c2cc(Br)ccc2-n2cnc(-c3cnco3)c21", "Result Unit": "%", "MOR % (percent inhibition)": 0}

I have this compound here, `CCOC(=O)c1ncn2c1[C@H](C)N=C(c1ccccc1F)c1cc(C3CC3)ccc1-2` , and I need its recorded MOR % (percent inhibition). 32

Would you mind doing `CCOC(=O)c1ncn2c1[C@@H](C)N=C(c1ccccc1F)c1cc(Br)ccc1-2` as well? 16

====

# Test system: synaptic benzodiazepine-sensitive receptors (BZR), GABAAR
# Assay Overview: 3H-flunitrazepam binding, rat brain homogenate
# Test Settings: at 10,000 nM
Reported Property: BZR % (percent inhibition) (%)
Your answer is read as %, so omit the unit and give the number.

Take a look at these entries with their results.
{"Molecule": "C#Cc1ccc2c(c1)C(c1ccccn1)=N[C@H](C)c1c(C(=O)O)ncn1-2 [GL-II-30]", "Test System": "synaptic benzodiazepine-sensitive receptors (BZR), GABAAR", "Result Unit": "%", "BZR % (percent inhibition)": 65}
{"Molecule": "CCOC(=O)c1ncn2c1[C@H](C)N=C(c1ccccc1F)c1cc(Br)ccc1-2 [SH-I-048B]", "Test System": "synaptic benzodiazepine-sensitive receptors (BZR), GABAAR", "Result Unit": "%", "BZR % (percent inhibition)": 61}
{"Molecule": "C#Cc1ccc2c(c1)C(c1ccccc1F)=N[C@H](C)c1c(C(=O)O)ncn1-2 [SH-053-2′F-R-CH3-Acid]", "Test System": "synaptic benzodiazepine-sensitive receptors (BZR), GABAAR", "Result Unit": "%", "BZR % (percent inhibition)": 93}
{"Molecule": "Brc1ccc2c(c1)C(c1ccccc1)=NCc1c(-c3cnco3)ncn1-2 [KRM-II-73]", "Test System": "synaptic benzodiazepine-sensitive receptors (BZR), GABAAR", "Result Unit": "%", "BZR % (percent inhibition)": 97}

With those in mind, consider the next molecule.
I have this molecule here, C#Cc1ccc2c(c1)C(c1ccccn1)=NCc1c(-c3ocnc3C)ncn1-2 [KRM-III-79] , and I need its recorded BZR % (percent inhibition). 81
